target.entity: HLA-A*02 (Homo sapiens, UniProt P04439, D140Y/D185E/D98H/E176V/E277Q/G131W/G231S/I119V/I121R/I166T/I218V/L300P/N151K/N90K/P208A/P217A/Q86G/Q94H/R138H/R169H)
measurement.protocol: MHC binding assay, UV-ligand exchange with β2m ELISA, HLA-A*02
condition.description: binding to HLA-A*02 ranged by peptide exchange yield
assay.metric: Peptide exchange

1. 95 (GLLGSLFFL; listed as Homo sapiens) [compound 95] :: ++++ (> = 75% = ++++)
2. 147 (YLMDDTVEI; listed as Homo sapiens) [compound 147] :: ++++ (> = 75% = ++++)
3. 84 (ALCPRIHEV; listed as Homo sapiens) [compound 84] :: ++++ (> = 75% = ++++)
4. 249 (GLCERLVSL; listed as Homo sapiens) [compound 249] :: ++++ (> = 75% = ++++)
